TARGET_OF_ASSAY: Polyunsaturated fatty acid 5-lipoxygenase (Rattus norvegicus, UniProt P12527)
Sequence (P12527 whole entry): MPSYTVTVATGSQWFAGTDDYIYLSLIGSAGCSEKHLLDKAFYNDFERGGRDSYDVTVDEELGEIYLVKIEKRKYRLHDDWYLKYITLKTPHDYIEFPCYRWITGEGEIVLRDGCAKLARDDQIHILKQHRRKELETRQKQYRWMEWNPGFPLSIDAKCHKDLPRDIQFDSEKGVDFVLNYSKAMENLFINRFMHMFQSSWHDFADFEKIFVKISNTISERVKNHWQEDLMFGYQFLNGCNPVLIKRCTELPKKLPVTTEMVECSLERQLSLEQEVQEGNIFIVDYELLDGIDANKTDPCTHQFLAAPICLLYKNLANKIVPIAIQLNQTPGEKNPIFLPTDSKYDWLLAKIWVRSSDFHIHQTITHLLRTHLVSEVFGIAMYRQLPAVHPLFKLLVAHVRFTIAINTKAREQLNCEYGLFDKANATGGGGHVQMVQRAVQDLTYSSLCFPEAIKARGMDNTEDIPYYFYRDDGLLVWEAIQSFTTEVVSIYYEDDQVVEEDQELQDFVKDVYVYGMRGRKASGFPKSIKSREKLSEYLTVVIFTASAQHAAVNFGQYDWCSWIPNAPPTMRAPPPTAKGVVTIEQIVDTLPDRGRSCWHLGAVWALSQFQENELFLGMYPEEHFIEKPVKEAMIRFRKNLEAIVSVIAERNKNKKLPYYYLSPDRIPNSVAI
MEASUREMENT_DESCRIPTION: In vitro inhibition against 5-lipoxygenase in RBL-1 cells was determined
Assay type: cell-based
Label 1 when IC50 is strictly below 0.009 µM; otherwise label -1.

// below: answered compounds
> print(dat)
                               entry.smiles  assigned.category
1       Cc1cccc(C(=O)/C=C/c2ccc(O)c(O)c2)c1                 -1
2       COc1cc(/C=C/C(=O)c2ccc(Cl)cc2)ccc1O                 -1
3       O=C(/C=C/c1ccc(O)c(O)c1)c1cccc(O)c1                  1
4      O=C(/C=C/c1ccc(O)c(O)c1)c1cc(O)ccc1O                 -1
5  Cc1cc(C)c(C(=O)/C=C/c2ccc(O)c(O)c2)c(C)c1                 -1

Ask: Bench note: check whether `Oc1c(Cc2ccccc2)ccc2ccccc12` shows IC50 below 0.009 µM
Reply: 1

Ask: Would you kindly verify if IC50 of `CCOc1ccc(OC)c(C(=O)/C=C/c2ccc(O)c(O)c2)c1` is strictly less than 0.009 µM?
Reply: 1

Ask: Input `O=C(/C=C/c1ccc(O)c(O)c1)c1ccccc1C(F)(F)F` ; condition: IC50 strictly below 0.009 µM. Does it hold?
Reply: -1

Ask: State whether 0.009 µM exceeds IC50 recorded for `COc1ccccc1C(=O)/C=C/c1ccc(O)c(O)c1` .
Reply: -1

Ask: Decide: IC50 of `O=C(/C=C/c1ccc(O)c(O)c1)c1ccc(Cl)cc1` strictly below 0.009 µM?
Reply: 1
